target: Mannose-6-phosphate isomerase (Homo sapiens); assay: MPI inhibition at elevated mannose 6-phosphate – biochemical, fluorescence intensity, high mannose 6-phosphate, primary screen (AID 1220); conditions: recombinant PMI enzyme, coupled fluorescence intensity; at 20 µM; stronger effect = higher value
Screen size: about 190,000 compounds; about 1,300 (0.68%) were called active. The sample as a whole holds a higher share of actives than the screen did.
The following molecules are shown together with reported inhibition values.
Give the value, in units of %, as a plain number.

Nc1ccc2nc(C3CCCCC3)[nH]c2c1	32.3
Nc1nnc(N2CCc3ccccc32)s1	6.2
Nc1ccc2nc(N3CCOCC3)sc2c1	59.7
O=[N+]([O-])c1ccc(/C=N/N=C/c2ccc([N+](=O)[O-])o2)o1	24.5
Nc1ccc2oc(C3CCCCC3)nc2c1	64

Observed inhibition on Mannose-6-phosphate isomerase (Homo sapiens), entry "O=C(NC(=S)Nc1ccccc1N1CCOCC1)c1sc2ccccc2c1Cl" , equals 7.5

Observed inhibition on Mannose-6-phosphate isomerase (Homo sapiens), entry "Cc1cc(Nc2ccccc2)nc(N2CCOCC2)n1" , equals -4.3

Observed inhibition on Mannose-6-phosphate isomerase (Homo sapiens), entry "COCCCNC(=S)Nc1ccccc1C" , equals 15.8

Observed inhibition on Mannose-6-phosphate isomerase (Homo sapiens), entry "c1ccc2sc(N3CCOCC3)nc2c1" , equals -4.3

Observed inhibition on Mannose-6-phosphate isomerase (Homo sapiens), entry "O=C(O)c1cc(Cl)c(Cl)cc1C(=O)Nc1cccc2cccnc12" , equals 46

###

target: Mannose-6-phosphate isomerase (Homo sapiens); assay: MPI inhibition at elevated mannose 6-phosphate – biochemical, fluorescence intensity, high mannose 6-phosphate, primary screen (AID 1220); conditions: recombinant PMI enzyme, coupled fluorescence intensity; at 20 µM
Among all 190,000 compounds or so, about 1,300 (0.68%) were called active. No stated cut-off is given here; in the data, active means inhibition above about 50%; inactive means the rest. Many of the other results were omitted from the sample, so actives are more common in it than they were.
Hello, when you answer, please use one of the following outcomes: active, inactive

CC1(C)CC(=O)C2=C(C1)NC(=O)CC2c1ccc(F)cc1 (stereo unspecified)	inactive
O=C(NCc1ccco1)/C(=C/C=C/c1ccccc1)NC(=O)c1ccco1	inactive

Shifting focus to the compound that follows.
# lookup: test call for "Clc1cccc(OCCn2cncn2)c1Cl"
inactive

###

target: Mannose-6-phosphate isomerase (Homo sapiens) (UniProt P34949); assay: MPI inhibition at elevated mannose 6-phosphate – biochemical, fluorescence intensity, high mannose 6-phosphate, primary screen (AID 1220); settings: recombinant PMI enzyme, coupled fluorescence intensity; at 20 µM
Sequence (P34949 whole entry, looked up): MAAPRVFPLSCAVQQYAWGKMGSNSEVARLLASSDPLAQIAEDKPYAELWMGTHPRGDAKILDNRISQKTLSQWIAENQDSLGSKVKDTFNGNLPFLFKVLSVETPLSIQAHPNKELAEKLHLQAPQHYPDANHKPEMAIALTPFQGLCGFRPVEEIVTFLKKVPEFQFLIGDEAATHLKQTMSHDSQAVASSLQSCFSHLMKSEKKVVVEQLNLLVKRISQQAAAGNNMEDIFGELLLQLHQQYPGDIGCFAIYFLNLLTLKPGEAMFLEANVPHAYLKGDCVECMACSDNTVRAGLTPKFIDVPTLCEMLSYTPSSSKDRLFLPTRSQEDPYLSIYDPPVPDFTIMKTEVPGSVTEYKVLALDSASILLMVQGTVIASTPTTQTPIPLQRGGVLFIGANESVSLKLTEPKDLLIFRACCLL
Among all 190,000 compounds or so, about 1,300 (0.68%) were called active. No stated cut-off is given here; in the data, active means inhibition above about 50%; inactive means the rest. This is one part of a sample in which actives are shown more often than they occur.
Hello, when you answer, please use one of the following outcomes: yes for active, no for inactive

CCC(=O)Nc1ccc(Cl)c(NC(=O)c2ccc(Br)o2)c1	no
Cc1ccc(Sc2nc3c(c(=O)[nH]c(=O)n3C)n2CCc2ccccc2)cc1	no
COc1ccc(-c2cn(-c3cccc(C)c3)c(=O)[nH]2)cc1OC	no
CCS(=O)c1ccccc1C(=O)O (stereo unspecified)	no
CCc1nnc(NC(=O)CCC(=O)N2CCN(CCc3ccccc3)CC2)s1	no
CC1CCN(CC(=O)Nc2sc3c(c2C#N)CCC3)CC1	no
O=C(Cn1nc(-c2ccccc2)ccc1=O)Nc1cccc(NC(=O)c2ccccn2)c1	no
CC(NC(=O)c1cc2ccccc2o1)c1ccccc1 (stereo unspecified)	no
COc1ccccc1NC(=O)Nc1ccc2[nH]c(=O)[nH]c2c1	no
CCN(C(=O)CSc1nnc(-c2ccncc2)n1-c1ccccc1)C1CCS(=O)(=O)C1 (stereo unspecified)	no

Shifting focus to the compound that follows.
# lookup: test call for COc1ccccc1CC(=O)NCC(c1ccco1)N1CCCCC1 (stereo unspecified)
yes

###

biological target: Mannose-6-phosphate isomerase (Homo sapiens); test: MPI inhibition at elevated mannose 6-phosphate – biochemical, fluorescence intensity, high mannose 6-phosphate, primary screen (AID 1220); settings: recombinant PMI enzyme, coupled fluorescence intensity; at 20 µM; stronger effect = higher value
Among all 190,000 compounds or so, about 1,300 (0.68%) were called active. This excerpt belongs to a sample that is enriched for actives.
reported-metric: inhibition (%)
Give the value, in units of %, as a plain number.

// solved cases for inhibition follow
Oc1cc2c(cc1C(c1ccc(Br)cc1)N1CCCC1)OCO2 (stereo unspecified)	68.1
CCc1ccccc1OCc1nc2ccc(S(=O)(=O)N3CCOCC3)cc2[nH]1	9.5
CCOc1cc(C(N)=O)cc(Cl)c1OCC	1.7

For record "COc1c(C)cccc1C(=O)NC(=S)Nc1ccc2c(c1)Cc1ccccc1-2" the listed inhibition is 8.2

For record "S=C(c1ccc2c(c1)OCO2)N1CCCCCC1" the listed inhibition is 3.6

For record Cc1ccc(CCNC(=O)C2CCCN(C(=O)N(C)C)C2)cc1 (stereo unspecified) the listed inhibition is -6.4

For record CC(C)c1ccc(NC(=O)C(c2ccc3c(c2)OCO3)N2CCCCC2)cc1 (stereo unspecified) the listed inhibition is 10.5

For record Oc1cc2c(cc1C(c1ccc(Cl)c(Cl)c1)N1CCCC1)OCO2 (stereo unspecified) the listed inhibition is 59.9

For record "COc1ccccc1N/C=C1/Sc2cc(Cl)ccc2NC1=O" the listed inhibition is 3

For record "CCCCc1nnc(NC(=O)CSc2nc(N)cc(=O)[nH]2)s1" the listed inhibition is 51.1

For record "COc1ccccc1NC(=O)c1cnc2c(-c3ccccc3)c(C)nn2c1C" the listed inhibition is 8.9

###

biological target: Mannose-6-phosphate isomerase (Homo sapiens) (UniProt P34949); experiment: MPI inhibition at elevated mannose 6-phosphate – biochemical, fluorescence intensity, high mannose 6-phosphate, primary screen (AID 1220); settings: recombinant PMI enzyme, coupled fluorescence intensity; at 20 µM; stronger effect = higher value
In all, about 190,000 compounds went through this assay and about 1,300 (0.68%) were called active. This excerpt belongs to a sample that is enriched for actives.
The following compounds are shown together with reported inhibition values.
Give the value, in units of %, as a plain number.

// solved cases for inhibition follow
CC(=O)Nc1cc(OC(C)=O)c2nonc2c1OC(C)=O	78.3
CC1=Nc2ncnn2C(c2ccccc2)/C1=N\O (stereo unspecified)	-9.4
CC1CCC(C(C)C)C(OC(=O)COC(=O)c2ccc(N)cc2)C1 (stereo unspecified)	16.2
Cn1c(NC(=O)C2CCCO2)cc(=O)n(C)c1=O (stereo unspecified)	42.3
CC1CCC(C(C)C)C(OC(=O)COC(=O)c2cc(O)ccc2N)C1 (stereo unspecified)	59.5
O=C(CN(C(=O)CNS(=O)(=O)c1ccccc1)c1ccc2c(c1)OCCO2)NCc1ccco1	-2.1
CCC(C)(C)NC(=O)c1cc(C(=O)OC)cc([N+](=O)[O-])c1	-6.6
COc1cc(O)c(NC(C)=O)c2nonc12	62.4

For record "CCOC(=O)C1CCN(C(=S)Nc2cccc(C)c2C)CC1" the listed inhibition is 52.8

For record "Cc1cc(NC(=O)c2ccc(Cl)cc2)n(CCOC(=O)c2ccc(Cl)cc2)n1" the listed inhibition is 10.6

For record "COc1cc(SC)ccc1C(=O)N1CCN(c2ccccc2)CC1" the listed inhibition is 5.9

###

molecular target: Mannose-6-phosphate isomerase (Homo sapiens); assay: MPI inhibition at elevated mannose 6-phosphate – biochemical, fluorescence intensity, high mannose 6-phosphate, primary screen (AID 1220); conditions: recombinant PMI enzyme, coupled fluorescence intensity; at 20 µM; stronger effect = higher value
The campaign covered roughly 190,000 compounds. About 1,300 (0.68%) were called active. Shown is part of a subset that was picked to be rich in actives.
The following compounds are shown together with reported inhibition values.
Give the value, in units of %, as a plain number.

// solved cases for inhibition follow
CCCCC(=O)Nc1cc(OC)c(NC(=O)C2CCCCC2)cc1OC	2.5
CCOc1ccc(NC(=O)NCC2CCN(c3ccc(OC)cc3)C2)cc1 (stereo unspecified)	22.5

Observed inhibition on Mannose-6-phosphate isomerase (Homo sapiens), entry "CCNC(=O)Nc1ccc(OC)cc1OC" , equals -3.8

Observed inhibition on Mannose-6-phosphate isomerase (Homo sapiens), entry "CCCCn1c(NCc2ccccc2NS(=O)(=O)c2ccc(C)cc2)nc2ccccc21" , equals 15.2

Observed inhibition on Mannose-6-phosphate isomerase (Homo sapiens), entry COc1ccc(N2CCC(CNC(=O)Nc3ccc(OC)cc3OC)C2)cc1 (stereo unspecified) , equals 55.7

Observed inhibition on Mannose-6-phosphate isomerase (Homo sapiens), entry "COc1ccccc1CNC(=O)Nc1cccs1" , equals -15.1

Observed inhibition on Mannose-6-phosphate isomerase (Homo sapiens), entry "C=CCn1c(NC(=O)c2ccco2)c(S(=O)(=O)c2ccccc2)c2nc3ccccc3nc21" , equals 34.3

Observed inhibition on Mannose-6-phosphate isomerase (Homo sapiens), entry "CC(C)(C)NC(=O)CSc1nc(N)cc(=O)[nH]1" , equals 0.4

Observed inhibition on Mannose-6-phosphate isomerase (Homo sapiens), entry "COc1ccc(NC(=O)NCc2ccncc2)c(OC)c1" , equals 3.6

Observed inhibition on Mannose-6-phosphate isomerase (Homo sapiens), entry "CCOC(=O)C1CCN(c2c(NCc3ccc(C(=O)N(C)Cc4ccccc4)cc3)c(=O)c2=O)CC1" , equals -6.2

Observed inhibition on Mannose-6-phosphate isomerase (Homo sapiens), entry CC1(C)NC(=O)N(CC(O)COc2ccc(N3C(=O)c4ccccc4C3=O)cc2)C1=O (stereo unspecified) , equals 53

Observed inhibition on Mannose-6-phosphate isomerase (Homo sapiens), entry "Cc1cc(C)c(S(=O)(=O)/N=C2\C=CC(=O)C(Cl)=C2)c(C)c1" , equals -6.5

Observed inhibition on Mannose-6-phosphate isomerase (Homo sapiens), entry "CC(=O)Nc1c(S(=O)(=O)c2ccccc2)c2nc3ccccc3nc2n1Cc1ccccc1" , equals 7.9

Observed inhibition on Mannose-6-phosphate isomerase (Homo sapiens), entry Cc1ccc(OCC(O)CN2C(=O)NC(C)(C)C2=O)cc1 (stereo unspecified) , equals 5.5

Observed inhibition on Mannose-6-phosphate isomerase (Homo sapiens), entry "Cc1ccc(S(=O)(=O)c2c(N)n(NC(=O)c3ccco3)c3nc4ccccc4nc23)cc1" , equals -41.3

Observed inhibition on Mannose-6-phosphate isomerase (Homo sapiens), entry "CCCCn1c(NC(=O)c2ccc(Br)o2)c(S(=O)(=O)c2ccccc2)c2nc3ccccc3nc21" , equals 5.9

Observed inhibition on Mannose-6-phosphate isomerase (Homo sapiens), entry "C=CCn1c(NS(=O)(=O)c2ccccc2)c(S(=O)(=O)c2ccc(C)cc2)c2nc3ccccc3nc21" , equals 52.4

Observed inhibition on Mannose-6-phosphate isomerase (Homo sapiens), entry "Cc1ccc(S(=O)(=O)c2c(N)n(CCC(C)C)c3nc4ccccc4nc23)cc1" , equals 1.8

Observed inhibition on Mannose-6-phosphate isomerase (Homo sapiens), entry "Cc1ccc(S(=O)(=O)c2c(N)n(Cc3ccco3)c3nc4ccccc4nc23)cc1" , equals -3.1

Observed inhibition on Mannose-6-phosphate isomerase (Homo sapiens), entry "Cc1ccc(-n2c(N)c(S(=O)(=O)c3ccccc3)c3nc4ccccc4nc32)cc1" , equals 0.2

Observed inhibition on Mannose-6-phosphate isomerase (Homo sapiens), entry CC1(C)NC(=O)N(CC(O)COc2ccc(-c3ccccc3)cc2)C1=O (stereo unspecified) , equals -0.4
